Biological target: T1, MST-Red-labeled human MIF (human, UniProt P14174 2-115, MST-Red dye (RED-NHS labelling; positions not stated))
T1 construct: also called MST-Red-MIF
T1 sequence (P14174 2-115): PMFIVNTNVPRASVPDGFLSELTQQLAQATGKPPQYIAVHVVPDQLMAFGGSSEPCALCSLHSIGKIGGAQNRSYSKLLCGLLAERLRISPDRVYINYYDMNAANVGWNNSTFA
Experiment: MST; Monolith NT.115, 25 °C; MST-Red-MIF at fixed concentration (312 nM with CXCL4L1, 456 nM with CXCL4) with serial dilutions of the chemokine; 10 mM Tris-HCl, pH 8.0, 0.01% BSA; both in solution
Conditions: both partners purified
READOUT: pKd
Numbers only, as −log10 of the molar value.

Record recombinant human CXCL4L1 (PF4var1) (natural protein, CXCL4L1 (platelet factor 4 variant 1), human, recombinant; Bought recombinant chemokine; source: bought: ChromaTec (Greifswald, Germany)) EAEEDGDLQCLCVKTTSQVRPRHITSLEVIKAGPHCPTAQLIATLKNGRKICLDLQALLYKKIIKEHLES . Reported pKd: 6.80
